Readings of Foxtail, Giant plant response rating for the listed compounds
test system: foxtail, giant (giant foxtail, Setaria faberii); experiment: Test C greenhouse herbicide test, pre- and postemergence; format: in vivo; details: Preemergence, 250 g ai/ha; scale 0 to 100 (0 no effect, 100 complete control)
recorded metric: Foxtail, Giant plant response rating

* CC(=O)Oc1c(C)nn(C)c(=O)c1-c1ccc(F)c2ccccc12 | 95
* COc1nn(C)c(=O)c(-c2c(C)ccc3ccccc23)c1O | 90
* CC(=O)Oc1c(C)nn(C)c(=O)c1-c1c(C)sc2ccc(C)cc12 | 100
* CCC(=O)Oc1c(C)nn(C)c(=O)c1-c1c(C)sc2c(C)cc(C)cc12 | 100
* COc1nn(C)c(=O)c(-c2c(C)ccc3ccccc23)c1OC(=O)OC(C)C | 85
* Cc1ccc2sc(C)c(-c3c(O)c(C)nn(C)c3=O)c2c1 | 100
* CCC(=O)Oc1c(C)nn(C)c(=O)c1-c1ccc(Br)c2ccccc12 | 90
* Cc1cc(C)c2ccccc2c1-c1c(OS(C)(=O)=O)c(C)nn(C)c1=O | 100
* COC(=O)Oc1c(C)nn(C)c(=O)c1-c1c(C)sc2c(C)cc(C)cc12 | 100
* Cc1ccc2ccc(C)c(-c3c(O)c(C)nn(C)c3=O)c2c1 | 100
* COc1nn(C)c(=O)c(-c2c(C)ccc3ccccc23)c1OC(C)=O | 100
